test system: 598228-144-R-J1-PDC complex spheroids, viability; assay: Anticancer human tumor 598228-144-R-J1-PDC patient-derived serous endometrial adenocarcinoma cell line growth inhibition [CLK]; details: second compound 10 µM; first compound 1 µM; active = viability on the fitted dose curve at most 10% of control; inactive = the rest;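 note: spheroids exposed to compounds for seven days before readout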
Pick one: TRUE for active, FALSE for inactive

CCN1CCN(Cc2ccc(Nc3ncc(F)c(-c4cc(F)c5nc(C)n(C(C)C)c5c4)n3)nc2)CC1 + CN1CCN(c2cc(C(=O)Nc3cc4cc(-c5cnn(C)c5)ccc4cn3)ccn2)CC1 = TRUE
Nc1ccccc1NC(=O)c1ccc(CNC(=O)OCc2cccnc2)cc1 + CN1CCN(c2cc(C(=O)Nc3cc4cc(-c5cnn(C)c5)ccc4cn3)ccn2)CC1 = TRUE
C#Cc1c(F)ccc2cc(O)cc(-c3ncc4c(N5CC6CCC(C5)N6)nc(OCC56CCCN5CC(F)C6)nc4c3F)c12 (stereo not given) + CNC(=O)c1ccc(Nc2nc(OC3CCCC3)c3c(-c4ccc5nc(C)oc5c4)c[nH]c3n2)c(OC)c1 = FALSE
CC(=O)O[C@H]1C(=O)[C@@]2(C)[C@H]([C@H](OC(=O)c3ccccc3)[C@]3(O)C[C@H](OC(=O)[C@H](O)[C@@H](NC(=O)c4ccccc4)c4ccccc4)C(C)=C1C3(C)C)[C@]1(OC(C)=O)CO[C@@H]1C[C@@H]2O + CNC(=O)c1ccc(Nc2nc(OC3CCCC3)c3c(-c4ccc5nc(C)oc5c4)c[nH]c3n2)c(OC)c1 = FALSE
C=C(F)C(=O)N1CCN(c2nc(OCC3CCCN3C)nc3c2CCN(c2cccc4cccc(Cl)c24)C3)CC1CC#N (stereo not given) + CNC(=O)c1ccc(Nc2nc(OC3CCCC3)c3c(-c4ccc5nc(C)oc5c4)c[nH]c3n2)c(OC)c1 = FALSE

stdin: Record request — test call for C#Cc1c(F)ccc2cc(O)cc(-c3ncc4c(N5CC6CCC(C5)N6)nc(OCC56CCCN5CC(F)C6)nc4c3F)c12 (stereo not given) + CN1CCN(c2cc(C(=O)Nc3cc4cc(-c5cnn(C)c5)ccc4cn3)ccn2)CC1
stdout: TRUE

stdin: Here is the next molecule: Nc1ccccc1NC(=O)c1ccc(CNC(=O)OCc2cccnc2)cc1 + CNC(=O)c1ccc(Nc2nc(OC3CCCC3)c3c(-c4ccc5nc(C)oc5c4)c[nH]c3n2)c(OC)c1
stdout: FALSE

stdin: Would you mind doing COc1cccc2c1C(=O)c1c(O)c3c(c(O)c1C2=O)CC(O)(C(=O)CO)CC3OC1CC(N)C(O)C(C)O1 (stereo not given) + CNC(=O)c1ccc(Nc2nc(OC3CCCC3)c3c(-c4ccc5nc(C)oc5c4)c[nH]c3n2)c(OC)c1 as well?
stdout: TRUE

stdin: Likewise for COc1c(OCCCN2CCOCC2)ccc2c3n(c(=NC(=O)c4cnc(N)nc4)nc12)CCN3 + CN1CCN(c2cc(C(=O)Nc3cc4cc(-c5cnn(C)c5)ccc4cn3)ccn2)CC1 ?
stdout: TRUE

stdin: Then what about the molecule CCc1c2c(nc3ccc(O)cc13)-c1cc3c(c(=O)n1C2)COC(=O)[C@]3(O)CC + CNC(=O)c1ccc(Nc2nc(OC3CCCC3)c3c(-c4ccc5nc(C)oc5c4)c[nH]c3n2)c(OC)c1 ?
stdout: TRUE
